Cited source for all entries: patent US20170260266A1

Field: Kd. Provide a value for each of the binders that follow.
Target: T1, full length (mature) human TSLP, recombinant (human, UniProt Q969D9 29-159, biotinylated in the SPR assay on the SA chip)
T1 construct: also called hTSLP; Human TSLP from E. coli
Experiment: SPR, biotinylated TSLP on SA chip (Biacore 4000)
Provide the measurement as a number trailed by its unit.

Prompt: Recorded Kd for DOM30h-440-58 (other) VL: DIQMTQSPSSLSASVGDRVTITCRASRPIRNWLDWYQQKPGKAPKLLIWGASHLQSGVPSRFSGSGSGTDFTLTISSLQPEDFATYYCLQIADDPVTFGQGTKVEIKR , please?
Response: 2.65 nM

Prompt: Recorded Kd for DOM30h-440-54 (other) VL: DIQMTQSPSSLSASVGDRVTITCRASRPIRNWLDWYQQKPGKAPKLLIWGASHLQSGVPSRFSGSGSGTDFTLTISSLQPEDFATYYCWQLAFDPTTFGQGTKVEIKR , please?
Response: 3.82 nM

Prompt: Recorded Kd for DOM30h-440-55 (other) VL: DIQMTQSPSSLSASVGDRVTITCRASRPIRNWLDWYQQKPGKAPKLLIWGASHLQSGVPSRFSGSGSGTDFTLTISSLQPEDFATYYCVQIGEDPVTFGQGTKVEIKR , please?
Response: 2.78 nM

Prompt: Recorded Kd for DOM30h-440-56 (other) VL: DIQMTQSPSSLSASVGDRVTITCRASRPIRNWLDWYQQKPGKAPKLLIWGASHLQSGVPSRFSGSGSGTDFTLTVSSLQPEDFATYYCMQIGEDPVTFGQGTKVEIKR , please?
Response: 2.47 nM

Prompt: Recorded Kd for DOM30h-440-53 (other) VL: DIQMTQSPSSLSASVGDRVTITCRASRPIRNWLDWYQQKPGKAPKLLIWGASHLQSGVPSRFSGSGSGTDFTLTISSLQPEDFATYYCLQVGEDPVTFGQGTKVEIKR , please?
Response: 3.05 nM

Prompt: Recorded Kd for DOM30h-440-63 (other) VL: DIQMTQSPSSLSASVGDRVTITCRASRPIRNWLDWYQQKPGKAPKLLIWGASHLQSGVPSRFSGSGSGTDFTLTISSLQPEDFATYYCMQIGSDPVTFGQGTKVEIKR , please?
Response: 4.22 nM

Prompt: Recorded Kd for DOM30h-440-65 (other) VL: DIQMTQSPSSLSASVGDRVTITCRASRPIRNWLDWYQQKPGKAPKLLIWGASHLQSGVPSRFSGSGSGTDFTLTISSLQPEDFATYYCMQIGEDPVTFGQGTKVEIKR , please?
Response: 3.84 nM

Prompt: Recorded Kd for DOM30h-440-64 (other) VL: DIQMTQSPSSLSASVGDRVTITCRASRPIRNWLDWYQQKPGKAPKLLIWGASHLQSGVPSRFSGSGSGTDFTLTISSLQPEDFATYYCLQIGEDPVTFGQGTKVEIKR , please?
Response: 6.17 nM

Prompt: Recorded Kd for DOM30h-440-60 (other) VL: DIQMTQSPSSLSASVGDRVTITCRASRPIRNWLDWYQQKPGKAPKLLIWGASHLQSGVPSRFSGSGSGTDFTLTISSLQPEDFATYYCIQFGEDPVTFGQGTKVEIKR , please?
Response: 0.14 nM
